- tested.system: native mouse MET on living cells (mouse, UniProt P16056 25-1379)
- assay.name: cell-based or functional assay
quantity.measured: phospho-MET ELISA EMAX (% HGF activity), MLP29 cells (%)
Response body: numeric value in %, unit text excluded.

71D4 chimeric llama-human IgG1 mAb (antibody, V domains shown, llama VH on human IgG1 CH1-CH2-CH3, llama VL on human lambda CL) VH: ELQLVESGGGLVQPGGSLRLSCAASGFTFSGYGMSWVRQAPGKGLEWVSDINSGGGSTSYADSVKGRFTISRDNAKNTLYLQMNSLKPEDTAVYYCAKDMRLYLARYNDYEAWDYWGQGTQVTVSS VL: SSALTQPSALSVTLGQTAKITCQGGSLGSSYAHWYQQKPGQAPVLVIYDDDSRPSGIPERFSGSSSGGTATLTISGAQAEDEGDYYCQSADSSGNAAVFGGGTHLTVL ... 95.3

Lookup: Give the measured phospho-MET ELISA EMAX (% HGF activity), MLP29 cells of 76H10 chimeric llama-human IgG1 mAb (antibody, V domains shown, llama VH on human IgG1 CH1-CH2-CH3, llama VL on human lambda CL) VH: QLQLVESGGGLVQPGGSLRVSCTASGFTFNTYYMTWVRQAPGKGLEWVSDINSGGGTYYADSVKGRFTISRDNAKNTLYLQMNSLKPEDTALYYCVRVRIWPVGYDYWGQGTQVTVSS VL: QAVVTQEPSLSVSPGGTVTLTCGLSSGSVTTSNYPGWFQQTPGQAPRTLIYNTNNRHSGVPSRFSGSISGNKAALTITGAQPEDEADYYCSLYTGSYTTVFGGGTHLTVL .
Found: 64.1

Lookup: I am curious: what phospho-MET ELISA EMAX (% HGF activity), MLP29 cells value has been reported for 71A3 chimeric llama-human IgG1 mAb (antibody, V domains shown, llama VH on human IgG1 CH1-CH2-CH3, llama VL on human lambda CL) VH: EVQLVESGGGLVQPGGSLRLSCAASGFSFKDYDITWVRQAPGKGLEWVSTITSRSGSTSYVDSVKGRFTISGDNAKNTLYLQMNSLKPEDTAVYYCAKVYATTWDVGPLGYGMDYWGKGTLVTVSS VL: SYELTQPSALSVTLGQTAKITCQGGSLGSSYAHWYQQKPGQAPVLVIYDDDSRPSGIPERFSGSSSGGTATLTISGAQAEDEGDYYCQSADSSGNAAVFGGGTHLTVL ?
Found: 96

Lookup: So what does the record say about phospho-MET ELISA EMAX (% HGF activity), MLP29 cells for 74C8 chimeric llama-human IgG1 mAb (antibody, V domains shown, llama VH on human IgG1 CH1-CH2-CH3, llama VL on human lambda CL) VH: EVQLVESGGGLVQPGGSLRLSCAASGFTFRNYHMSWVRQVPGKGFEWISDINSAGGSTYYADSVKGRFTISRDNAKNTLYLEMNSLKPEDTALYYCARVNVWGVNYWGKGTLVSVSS VL: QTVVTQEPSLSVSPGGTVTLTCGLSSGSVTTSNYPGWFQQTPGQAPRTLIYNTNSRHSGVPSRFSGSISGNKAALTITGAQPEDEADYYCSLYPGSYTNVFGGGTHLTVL ?
Found: 102

Lookup: Any idea what its phospho-MET ELISA EMAX (% HGF activity), MLP29 cells is? The binder is 71D6 chimeric llama-human IgG1 mAb (antibody, V domains shown, llama VH on human IgG1 CH1-CH2-CH3, llama VL on human lambda CL) VH: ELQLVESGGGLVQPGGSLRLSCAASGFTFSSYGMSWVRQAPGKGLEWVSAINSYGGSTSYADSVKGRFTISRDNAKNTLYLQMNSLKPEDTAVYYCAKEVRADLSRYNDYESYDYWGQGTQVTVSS VL: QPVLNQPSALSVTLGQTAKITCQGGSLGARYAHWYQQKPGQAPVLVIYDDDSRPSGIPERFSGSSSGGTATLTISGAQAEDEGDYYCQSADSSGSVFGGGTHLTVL
Found: 115

Lookup: Give the measured phospho-MET ELISA EMAX (% HGF activity), MLP29 cells of 71G12 chimeric llama-human IgG1 mAb (antibody, V domains shown, llama VH on human IgG1 CH1-CH2-CH3, llama VL on human kappa CL) VH: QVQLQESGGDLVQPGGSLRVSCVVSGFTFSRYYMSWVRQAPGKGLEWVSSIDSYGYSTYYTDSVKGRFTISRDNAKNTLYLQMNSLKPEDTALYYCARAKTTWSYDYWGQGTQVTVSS VL: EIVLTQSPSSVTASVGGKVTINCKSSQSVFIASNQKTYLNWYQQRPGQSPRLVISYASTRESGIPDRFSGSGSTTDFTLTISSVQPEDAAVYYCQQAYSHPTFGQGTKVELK .
Found: 75.4

Lookup: Any idea what its phospho-MET ELISA EMAX (% HGF activity), MLP29 cells is? The binder is 71C3 chimeric llama-human IgG1 mAb (antibody, V domains shown, llama VH on human IgG1 CH1-CH2-CH3, llama VL on human lambda CL) VH: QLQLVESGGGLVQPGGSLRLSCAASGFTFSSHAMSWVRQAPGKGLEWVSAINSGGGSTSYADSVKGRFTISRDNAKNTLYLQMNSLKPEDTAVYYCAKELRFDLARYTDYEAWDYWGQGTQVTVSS VL: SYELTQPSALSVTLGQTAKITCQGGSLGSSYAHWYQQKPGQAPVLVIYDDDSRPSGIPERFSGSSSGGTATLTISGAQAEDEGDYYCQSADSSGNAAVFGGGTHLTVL
Found: 98.8

Lookup: Value lookup for phospho-MET ELISA EMAX (% HGF activity), MLP29 cells; key = 71G3 chimeric llama-human IgG1 mAb (antibody, V domains shown, llama VH on human IgG1 CH1-CH2-CH3, llama VL on human lambda CL) VH: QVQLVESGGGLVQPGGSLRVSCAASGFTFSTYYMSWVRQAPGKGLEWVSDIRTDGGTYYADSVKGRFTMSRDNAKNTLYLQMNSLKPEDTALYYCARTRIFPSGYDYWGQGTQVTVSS VL: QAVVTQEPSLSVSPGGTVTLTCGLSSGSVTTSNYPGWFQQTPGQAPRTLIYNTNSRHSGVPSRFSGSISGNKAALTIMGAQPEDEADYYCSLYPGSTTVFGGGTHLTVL
Found: 97.8

Lookup: Query: phospho-MET ELISA EMAX (% HGF activity), MLP29 cells; subject: 72F8 chimeric llama-human IgG1 mAb (antibody, V domains shown, llama VH on human IgG1 CH1-CH2-CH3, llama VL on human lambda CL) VH: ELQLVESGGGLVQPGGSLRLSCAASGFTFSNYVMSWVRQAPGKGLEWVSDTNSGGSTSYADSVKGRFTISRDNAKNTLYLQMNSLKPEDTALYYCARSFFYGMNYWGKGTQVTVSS VL: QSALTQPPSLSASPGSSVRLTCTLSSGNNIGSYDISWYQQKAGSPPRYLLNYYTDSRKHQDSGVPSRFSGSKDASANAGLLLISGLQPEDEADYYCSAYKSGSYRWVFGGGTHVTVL
Found: 66.8

Lookup: # lookup: phospho-MET ELISA EMAX (% HGF activity), MLP29 cells of 76G7 chimeric llama-human IgG1 mAb (antibody, V domains shown, llama VH on human IgG1 CH1-CH2-CH3, llama VL on human lambda CL) VH: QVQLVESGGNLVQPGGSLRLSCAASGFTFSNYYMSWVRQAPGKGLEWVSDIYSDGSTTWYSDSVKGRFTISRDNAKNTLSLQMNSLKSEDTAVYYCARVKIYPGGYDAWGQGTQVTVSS VL: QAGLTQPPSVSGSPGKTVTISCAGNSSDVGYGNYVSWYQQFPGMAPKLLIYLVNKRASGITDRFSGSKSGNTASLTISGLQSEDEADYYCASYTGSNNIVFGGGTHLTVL
Found: 71.5

Lookup: # lookup: phospho-MET ELISA EMAX (% HGF activity), MLP29 cells of 71G2 chimeric llama-human IgG1 mAb (antibody, V domains shown, llama VH on human IgG1 CH1-CH2-CH3, llama VL on human lambda CL) VH: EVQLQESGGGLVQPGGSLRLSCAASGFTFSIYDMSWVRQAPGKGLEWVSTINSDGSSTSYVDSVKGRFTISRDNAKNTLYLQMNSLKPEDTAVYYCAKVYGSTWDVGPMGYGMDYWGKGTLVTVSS VL: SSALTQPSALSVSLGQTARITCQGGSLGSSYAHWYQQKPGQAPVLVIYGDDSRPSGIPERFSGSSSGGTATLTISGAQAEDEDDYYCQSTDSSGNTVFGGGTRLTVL
Found: 110
